test system: A549; assay: Cell proliferation assay (MTT/CCK-8), A549; details: Homo sapiens, A549, 48 h, read-out: IC50 A549
Catalogue of pIC50 values
Just the number, please; pIC50 means minus log10 of the concentration in mol/L.

See these solved cases before continuing.
c1ccc(CNc2nc(NCc3ccccc3)c3ccccc3n2)cc1: 4.93
Cc1cc2c(C(N)=O)cccc2n1-c1nc2c(c(NCc3ccccc3)n1)COCC2 [CB-5083, reference compound]: 6.11

From here, focus on the item given below.
(Q) Would you please give the reported pIC50 of `Nc1nccnc1C(=O)NNc1ncnc2ccccc12` with A549?
(A) 4.62

* * *

molecular target: His6-p97 (Homo sapiens)
Sequence (P55072 whole entry): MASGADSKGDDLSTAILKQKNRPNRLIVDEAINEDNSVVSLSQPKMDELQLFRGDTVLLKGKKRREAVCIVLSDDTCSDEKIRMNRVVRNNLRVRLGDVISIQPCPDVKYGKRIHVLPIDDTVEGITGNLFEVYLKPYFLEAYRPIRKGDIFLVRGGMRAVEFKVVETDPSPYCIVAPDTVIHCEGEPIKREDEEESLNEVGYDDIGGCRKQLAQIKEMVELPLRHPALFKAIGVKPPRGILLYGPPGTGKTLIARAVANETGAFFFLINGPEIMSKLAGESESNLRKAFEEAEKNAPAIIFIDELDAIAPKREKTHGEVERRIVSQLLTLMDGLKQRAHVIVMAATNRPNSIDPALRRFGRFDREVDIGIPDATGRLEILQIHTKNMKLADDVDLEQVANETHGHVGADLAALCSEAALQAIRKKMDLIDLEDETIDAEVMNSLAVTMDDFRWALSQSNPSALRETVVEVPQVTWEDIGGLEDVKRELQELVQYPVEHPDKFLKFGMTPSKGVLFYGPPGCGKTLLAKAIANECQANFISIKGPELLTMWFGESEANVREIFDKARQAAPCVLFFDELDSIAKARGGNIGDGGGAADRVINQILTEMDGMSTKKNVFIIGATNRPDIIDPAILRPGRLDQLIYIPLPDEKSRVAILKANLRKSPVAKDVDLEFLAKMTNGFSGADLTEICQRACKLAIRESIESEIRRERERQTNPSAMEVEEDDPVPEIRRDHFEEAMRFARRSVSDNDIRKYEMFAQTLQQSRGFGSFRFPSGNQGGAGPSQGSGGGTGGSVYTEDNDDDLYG
property_measured: pKd
Note: pKd values are expressed as the negative base-10 logarithm of concentration in M.

O=C(O)/C=C/c1ccc(Nc2nc(NCc3cnccn3)c3ccccc3n2)cc1 [Compound 10a]: 5.30

Switching to the query record.
(Q) For c1ccc(CNc2nc(NCc3ccccc3)c3ccccc3n2)cc1 [DBeQ] , write its pKd.
(A) 6.17
